Tested on: 188146-221-R-J1-PDC complex spheroid viability
Test: Anticancer human tumor 188146-221-R-J1-PDC patient-derived colon adenocarcinoma cell line growth inhibition [POLQ]
Details: second compound 0.316 µM; first compound 3.16 µM; hits give low values
Quantity name: viability, T/C

viability, T/C on 188146-221-R-J1-PDC complex spheroid viability for CC1COCCN1c1cc(C2(O)CC3CCC(C2)O3)c2cnn(-c3ccn[nH]3)c2n1 (stereo not given) + COC1C(OC(N)=O)C(O)C(Oc2ccc3c(O)c(NC(=O)c4ccc(O)c(CC=C(C)C)c4)c(=O)oc3c2C)OC1(C)C is 17%

viability, T/C on 188146-221-R-J1-PDC complex spheroid viability for CCCS(=O)(=O)Nc1ccc(F)c(C(=O)c2c[nH]c3ncc(-c4ccc(Cl)cc4)cc23)c1F + Cc1cccc(N(C)C(=O)C2C(O)CCN2c2nc(C)cc(C(F)(F)F)c2C#N)c1 is 90.9%

viability, T/C on 188146-221-R-J1-PDC complex spheroid viability for CC1COCCN1c1cc(C2(O)CC3CCC(C2)O3)c2cnn(-c3ccn[nH]3)c2n1 (stereo not given) + Nc1ccc(C#CCN(C(=O)Cc2ncc(C(F)(F)F)cc2C(F)(F)F)c2ccc(F)cc2)nn1 is 17%

viability, T/C on 188146-221-R-J1-PDC complex spheroid viability for CCc1cc2c(N3CCc4c(cc(Cn5ccnc5)cc4-c4cn(C)nc4C(F)(F)F)C3=O)cc(C)nc2c(OC)n1 + Nc1ccc(C#CCN(C(=O)Cc2ncc(C(F)(F)F)cc2C(F)(F)F)c2ccc(F)cc2)nn1 is 66.1%

viability, T/C on 188146-221-R-J1-PDC complex spheroid viability for CCCS(=O)(=O)Nc1ccc(F)c(C(=O)c2c[nH]c3ncc(-c4ccc(Cl)cc4)cc23)c1F + Nc1ccc(C#CCN(C(=O)Cc2ncc(C(F)(F)F)cc2C(F)(F)F)c2ccc(F)cc2)nn1 is 93.8%

viability, T/C on 188146-221-R-J1-PDC complex spheroid viability for COc1ccc([C@@H](O)c2cc(-c3ncnc4cc(N5CCOCC5)ccc34)c(F)cc2Cl)nn1 + Nc1ccc(C#CCN(C(=O)Cc2ncc(C(F)(F)F)cc2C(F)(F)F)c2ccc(F)cc2)nn1 is 82.5%

viability, T/C on 188146-221-R-J1-PDC complex spheroid viability for CCc1cc2c(N3CCc4c(cc(Cn5ccnc5)cc4-c4cn(C)nc4C(F)(F)F)C3=O)ccnc2c(OC)n1 + Nc1ccc(C#CCN(C(=O)Cc2ncc(C(F)(F)F)cc2C(F)(F)F)c2ccc(F)cc2)nn1 is 75.6%

viability, T/C on 188146-221-R-J1-PDC complex spheroid viability for Nc1ccn(C2OC(CO)C(O)C2(F)F)c(=O)n1 (stereo not given) + Cc1cccc(N(C)C(=O)C2C(O)CCN2c2nc(C)cc(C(F)(F)F)c2C#N)c1 is 16.9%

viability, T/C on 188146-221-R-J1-PDC complex spheroid viability for COc1cc(C2c3cc4c(cc3C(OC3OC5COC(C)OC5C(O)C3O)C3COC(=O)C23)OCO4)cc(OC)c1O (stereo not given) + COC1C(OC(N)=O)C(O)C(Oc2ccc3c(O)c(NC(=O)c4ccc(O)c(CC=C(C)C)c4)c(=O)oc3c2C)OC1(C)C is 24.7%

viability, T/C on 188146-221-R-J1-PDC complex spheroid viability for O=C(c1cc(Cc2n[nH]c(=O)c3ccccc23)ccc1F)N1CCN(C(=O)C2CC2)CC1 + Nc1ccc(C#CCN(C(=O)Cc2ncc(C(F)(F)F)cc2C(F)(F)F)c2ccc(F)cc2)nn1 is 80.9%

* * *

Tested on: 188146-221-R-J1-PDC complex spheroid viability
Test: Anticancer human tumor 188146-221-R-J1-PDC cell line growth inhibition [POLQ];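 note: spheroids exposed to compounds for seven days; 100% = DMSO vehicle control viability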
Conditions: second compound 1 µM; first compound 0.0316 µM; hits give low values
Quantity name: viability, T/C (%)
Give the value in % but do not write % after it.

Value of viability, T/C reported for the compound Nc1ccn(C2OC(CO)C(O)C2(F)F)c(=O)n1 (stereo unspecified) + COC1C(OC(N)=O)C(O)C(Oc2ccc3c(O)c(NC(=O)c4ccc(O)c(CC=C(C)C)c4)c(=O)oc3c2C)OC1(C)C is 41.5

Value of viability, T/C reported for the compound CCCS(=O)(=O)Nc1ccc(F)c(C(=O)c2c[nH]c3ncc(-c4ccc(Cl)cc4)cc23)c1F + Cc1cccc(N(C)C(=O)C2C(O)CCN2c2nc(C)cc(C(F)(F)F)c2C#N)c1 is 93.4

Value of viability, T/C reported for the compound CCc1cc2c(N3CCc4c(cc(Cn5ccnc5)cc4-c4cn(C)nc4C(F)(F)F)C3=O)cc(C)nc2c(OC)n1 + Cc1cccc(N(C)C(=O)C2C(O)CCN2c2nc(C)cc(C(F)(F)F)c2C#N)c1 is 93.8

Value of viability, T/C reported for the compound C#Cc1c(F)ccc2cc(O)cc(-c3ncc4c(N5CC6CCC(C5)N6)nc(OCC56CCCN5CC(F)C6)nc4c3F)c12 (stereo unspecified) + Nc1ccc(C#CCN(C(=O)Cc2ncc(C(F)(F)F)cc2C(F)(F)F)c2ccc(F)cc2)nn1 is 88.6

Value of viability, T/C reported for the compound CNCc1ccc(-c2[nH]c3cc(F)cc4c3c2CCNC4=O)cc1 + COC1C(OC(N)=O)C(O)C(Oc2ccc3c(O)c(NC(=O)c4ccc(O)c(CC=C(C)C)c4)c(=O)oc3c2C)OC1(C)C is 108

Value of viability, T/C reported for the compound CCc1cc2c(N3CCc4c(cc(Cn5ccnc5)cc4-c4cn(C)nc4C(F)(F)F)C3=O)ccnc2c(OC)n1 + Cc1cccc(N(C)C(=O)C2C(O)CCN2c2nc(C)cc(C(F)(F)F)c2C#N)c1 is 107

Value of viability, T/C reported for the compound CC1COCCN1c1cc(-c2ccnn2C)c2ccnc(-c3ccn[nH]3)c2n1 (stereo unspecified) + Nc1ccc(C#CCN(C(=O)Cc2ncc(C(F)(F)F)cc2C(F)(F)F)c2ccc(F)cc2)nn1 is 96.3

Value of viability, T/C reported for the compound CC1COCCN1c1cc(C2(O)CC3CCC(C2)O3)c2cnn(-c3ccn[nH]3)c2n1 (stereo unspecified) + Cc1cccc(N(C)C(=O)C2C(O)CCN2c2nc(C)cc(C(F)(F)F)c2C#N)c1 is 89.2

Value of viability, T/C reported for the compound O=C(c1cc(Cc2n[nH]c(=O)c3ccccc23)ccc1F)N1CCN(C(=O)C2CC2)CC1 + COC1C(OC(N)=O)C(O)C(Oc2ccc3c(O)c(NC(=O)c4ccc(O)c(CC=C(C)C)c4)c(=O)oc3c2C)OC1(C)C is 106

Value of viability, T/C reported for the compound COc1cc(C2c3cc4c(cc3C(OC3OC5COC(C)OC5C(O)C3O)C3COC(=O)C23)OCO4)cc(OC)c1O (stereo unspecified) + COC1C(OC(N)=O)C(O)C(Oc2ccc3c(O)c(NC(=O)c4ccc(O)c(CC=C(C)C)c4)c(=O)oc3c2C)OC1(C)C is 111

Value of viability, T/C reported for the compound Nc1ccn(C2OC(CO)C(O)C2(F)F)c(=O)n1 (stereo unspecified) + Nc1ccc(C#CCN(C(=O)Cc2ncc(C(F)(F)F)cc2C(F)(F)F)c2ccc(F)cc2)nn1 is 30.1

* * *

Provide the recorded viability, T/C for the entries that follow.
System: 188146-221-R-J1-PDC complex spheroid viability
Test: Anticancer human tumor 188146-221-R-J1-PDC cell line growth inhibition [POLQ];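 note: spheroids exposed to compounds for seven days; 100% = DMSO vehicle control viability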
Conditions: second compound 10 µM; first compound 0.00316 µM; hits give low values
Protocol: Multicellular complex tumor spheroid response to Polymerase (POL) inhibitors (novobiocin, ART-558, RP6685) in combination with a variety of drugs and investigational agents in selected tumor cell lines The POL inhibitors (novobiocin, ART-558, and RP6685) were evaluated both individually and in combination with standard of care and investigational anticancer small molecules within a complex spheroid model of solid tumors. . […]

Value of viability, T/C reported for the compound CC[C@@]1(O)C(=O)OCc2c1cc1n(c2=O)Cc2cc3c(CN(C)C)c(O)ccc3nc2-1 + Nc1ccc(C#CCN(C(=O)Cc2ncc(C(F)(F)F)cc2C(F)(F)F)c2ccc(F)cc2)nn1 is 98.9%

Value of viability, T/C reported for the compound Cn1ncnc1[C@H]1c2n[nH]c(=O)c3cc(F)cc(c23)N[C@@H]1c1ccc(F)cc1 + Cc1cccc(N(C)C(=O)C2C(O)CCN2c2nc(C)cc(C(F)(F)F)c2C#N)c1 is 90.6%

Value of viability, T/C reported for the compound CCc1c2c(nc3ccc(O)cc13)-c1cc3c(c(=O)n1C2)COC(=O)[C@]3(O)CC + Cc1cccc(N(C)C(=O)C2C(O)CCN2c2nc(C)cc(C(F)(F)F)c2C#N)c1 is 92.2%

Value of viability, T/C reported for the compound CCc1c2c(nc3ccc(O)cc13)-c1cc3c(c(=O)n1C2)COC(=O)[C@]3(O)CC + COC1C(OC(N)=O)C(O)C(Oc2ccc3c(O)c(NC(=O)c4ccc(O)c(CC=C(C)C)c4)c(=O)oc3c2C)OC1(C)C is 95.5%
